The values you see were collected from patent US5814646A.

- Test system: Aβ production in 293 751 SWE and CHO 751 SWE cells (transfected with APP-751 Swedish mutation)
- PROTOCOL DETAILS: Aβ production inhibition activity in cells (Aβ ELISA of conditioned media, normalized for cytotoxicity by MTT)
- Assay type: cell-based
- ASSAY CONTEXT: 10 μg/ml, % of drug-free control, normalized to MTT
RESULT TYPE: inhibition at 10 µg/mL (%)

MOLECULE: CC(c1cccc(Oc2ccc(C(C)(C)C)cc2)c1)N(O)C(=S)NCc1ccc2c(c1)OCO2 (centres unmarked)
QUANTITATIVE READOUT: 28
//
MOLECULE: Cc1cccc(CNC(=S)N(O)Cc2ccc(OCc3c(Cl)cccc3Cl)cc2)c1
QUANTITATIVE READOUT: 7
//
MOLECULE: COC(=O)c1ccccc1NC(=O)Nc1ccc(Cl)c(Cl)c1
QUANTITATIVE READOUT: 22
//
MOLECULE: CSc1ccc(NC(=O)Nc2ccc(Cl)cc2)cc1
QUANTITATIVE READOUT: 13
//
MOLECULE: CSc1ccc(NC(=O)Nc2ccccc2Cl)cc1
QUANTITATIVE READOUT: 41

====

- Test system: Aβ production in 293 751 SWE and CHO 751 SWE cells (transfected with APP-751 Swedish mutation)
- PROTOCOL DETAILS: Aβ production inhibition activity in cells (Aβ ELISA of conditioned media, normalized for cytotoxicity by MTT)
- Assay type: cell-based
- ASSAY CONTEXT: 10 μg/ml, % of drug-free control, normalized to MTT
Entries and their measured inhibition at 10 µg/mL follow.

MOLECULE: CCCCCCC(c1cccc(Oc2ccc(C(C)(C)C)cc2)c1)N(O)C(=S)Nc1ccc(Cl)c(C(F)(F)F)c1 (centres unmarked) [Compound 35]
inhibition at 10 µg/mL (%): 9

MOLECULE: CC(C)(C)c1ccc(Oc2ccc(NC(=S)NCc3cccnc3)cc2)cc1 [Compound 121]
inhibition at 10 µg/mL (%): 37

MOLECULE: O=C(Nc1ccccc1)Nc1nncs1 [Compound 255]
inhibition at 10 µg/mL (%): 1

MOLECULE: CSc1ccc(NC(=O)Nc2cccc(Cl)c2Cl)cc1 [Compound 158]
inhibition at 10 µg/mL (%): 51

MOLECULE: CC(C)(C)c1ccc(Oc2ccccc2NC(=S)NCc2ccc(Cl)c(Cl)c2)cc1 [Compound 183]
inhibition at 10 µg/mL (%): 24

====

- Test system: Aβ production in 293 751 SWE and CHO 751 SWE cells (transfected with APP-751 Swedish mutation)
- PROTOCOL DETAILS: Aβ production inhibition activity in cells (Aβ ELISA of conditioned media, normalized for cytotoxicity by MTT)
- Format: cell-based
- ASSAY CONTEXT: 2 h pretreatment + 2 h incubation
Entries and their measured IC50 follow.
RESULT TYPE: IC50 (µM)

COMPOUND: CC(C)(C)c1ccc(Oc2ccc(NC(=S)NCc3nnc(C(F)(F)F)s3)cc2)cc1
UNITS: µM
QUANTITATIVE READOUT: 10.2

COMPOUND: CC(C)(C)OC(=O)N1CCCC(CNC(=S)Nc2ccc(Oc3ccc(C(C)(C)C)cc3)cc2)C1 (stereo not drawn)
UNITS: µM
QUANTITATIVE READOUT: 9.3

COMPOUND: Cc1nnc(NC(=O)Nc2ccc(Cl)c(Cl)c2)s1
UNITS: µM
QUANTITATIVE READOUT: 5

COMPOUND: CC(c1cccc(OCc2ccc(C(C)(C)C)cc2)c1)N(O)C(=S)NCc1ccccc1 (stereo not drawn)
UNITS: µM
QUANTITATIVE READOUT: 8.9

COMPOUND: CC(C)(C)c1ccc(Oc2cccc(CNC(=S)NCc3ccccc3)c2)cc1
UNITS: µM
QUANTITATIVE READOUT: 9.1

COMPOUND: CC(C)(C)c1ccc(Oc2ccc(NC(=S)NCc3ccc(F)cc3F)cc2)cc1
UNITS: µM
QUANTITATIVE READOUT: 7.3

COMPOUND: CC(C)(C)c1ccc(Oc2ccc(NC(=S)NCCCCc3ccccc3)cc2)cc1
UNITS: µM
QUANTITATIVE READOUT: 16.4

COMPOUND: CC(C)(C)c1ccccc1Oc1ccc(NC(=S)NCc2ccccc2)cc1
UNITS: µM
QUANTITATIVE READOUT: 9.4

COMPOUND: CCC(c1cccc(Oc2ccc(C(C)(C)C)cc2)c1)N(O)C(=S)NCc1cccc(OC)c1 (stereo not drawn)
UNITS: µM
QUANTITATIVE READOUT: 5.6
